Origin of measurements: the supplement of paper PMC8728848

- target.under.test: Neu5Ac(a2-3)Gal(b1-4)GlcNAc(b1-2)[Neu5Ac(a2-3)Gal(b1-4)GlcNAc(b1-6)]Man(a1-6)[Neu5Ac(a2-3)Gal(b1-4)GlcNAc(b1-2)Man(a1-3)][GlcNAc(b1-4)]Man(b1-4)GlcNAc(b1-4)GlcNAc
- method.description: glycan array binding signal (z-score within array); higher = stronger binding
- measurement.setup: glycan notation: IUPAC condensed, linker removed
About 410 targets per protein were measured; listed, in parts, are those with the strongest signals and a random draw of the rest.
readout.kind: glycan array binding signal (z-score)

Take a look at these entries with their results.
{"binder": "Erv46-EDTA (Saccharomyces cerevisiae), P39727 (protein) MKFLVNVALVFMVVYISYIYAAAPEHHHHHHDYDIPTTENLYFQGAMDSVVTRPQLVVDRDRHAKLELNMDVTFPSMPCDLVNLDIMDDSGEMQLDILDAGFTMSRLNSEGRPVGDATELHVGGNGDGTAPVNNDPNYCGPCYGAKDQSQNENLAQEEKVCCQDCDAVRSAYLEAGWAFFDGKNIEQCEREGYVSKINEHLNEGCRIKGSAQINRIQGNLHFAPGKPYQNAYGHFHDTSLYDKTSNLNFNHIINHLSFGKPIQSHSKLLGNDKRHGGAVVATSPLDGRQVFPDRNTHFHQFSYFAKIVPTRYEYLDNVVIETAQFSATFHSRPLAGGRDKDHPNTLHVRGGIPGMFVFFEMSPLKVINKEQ", "glycan array binding signal (z-score)": -0.335}
{"binder": "KISKRILTGKK [NK11 (Sus scrofa)]", "glycan array binding signal (z-score)": 0.405}
{"binder": "HPA (Helix pomatia), Q2F1K8 (protein) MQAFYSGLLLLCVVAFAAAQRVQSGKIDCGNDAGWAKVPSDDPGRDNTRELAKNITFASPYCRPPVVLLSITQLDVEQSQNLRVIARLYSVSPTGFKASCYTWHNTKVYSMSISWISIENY", "glycan array binding signal (z-score)": -0.361}
{"binder": "SUN4 (Saccharomyces cerevisiae), P53616 (protein) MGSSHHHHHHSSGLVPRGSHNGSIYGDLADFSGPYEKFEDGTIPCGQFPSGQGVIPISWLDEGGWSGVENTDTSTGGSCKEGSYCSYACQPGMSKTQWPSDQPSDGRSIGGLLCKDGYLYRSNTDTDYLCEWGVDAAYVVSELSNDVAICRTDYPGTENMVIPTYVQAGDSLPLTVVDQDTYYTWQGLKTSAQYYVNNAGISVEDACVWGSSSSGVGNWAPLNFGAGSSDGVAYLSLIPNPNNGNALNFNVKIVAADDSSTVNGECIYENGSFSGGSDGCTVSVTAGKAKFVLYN", "glycan array binding signal (z-score)": -0.391}
{"binder": "MPA (Maclura pomifera), P18674 (protein) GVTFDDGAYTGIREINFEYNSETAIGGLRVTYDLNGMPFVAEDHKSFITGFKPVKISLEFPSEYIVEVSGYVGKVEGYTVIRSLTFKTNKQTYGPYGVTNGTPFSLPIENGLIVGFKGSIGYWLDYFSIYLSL", "glycan array binding signal (z-score)": -0.334}

glycan array binding signal (z-score) measured on his-Lectin-24A (Drosophila melanogaster) (protein) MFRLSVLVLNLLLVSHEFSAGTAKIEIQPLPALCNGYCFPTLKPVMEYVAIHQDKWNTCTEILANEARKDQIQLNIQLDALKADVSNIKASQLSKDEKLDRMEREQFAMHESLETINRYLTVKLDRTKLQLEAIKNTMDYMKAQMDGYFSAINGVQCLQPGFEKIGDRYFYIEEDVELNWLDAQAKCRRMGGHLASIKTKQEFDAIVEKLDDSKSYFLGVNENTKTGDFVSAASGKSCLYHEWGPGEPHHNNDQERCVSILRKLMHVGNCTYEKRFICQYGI = -0.362

Form: binder = Arath Fbox LD (Arabidopsis thaliana) (protein) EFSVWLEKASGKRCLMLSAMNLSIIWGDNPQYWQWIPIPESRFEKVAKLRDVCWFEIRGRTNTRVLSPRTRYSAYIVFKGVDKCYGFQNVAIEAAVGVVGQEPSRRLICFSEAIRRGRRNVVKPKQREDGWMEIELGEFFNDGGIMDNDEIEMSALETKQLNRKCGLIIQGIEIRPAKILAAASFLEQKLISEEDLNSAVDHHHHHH ; glycan array binding signal (z-score) = -0.407

// Drgal1 (Danio rerio) (protein) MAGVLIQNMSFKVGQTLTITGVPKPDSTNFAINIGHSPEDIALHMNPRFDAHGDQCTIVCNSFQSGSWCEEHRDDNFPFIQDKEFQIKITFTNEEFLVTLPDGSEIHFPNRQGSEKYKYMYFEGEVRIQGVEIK : glycan array binding signal (z-score) value = 3.36

Record AT3G09350(27) (Arabidopsis thaliana), Q84J81 (protein) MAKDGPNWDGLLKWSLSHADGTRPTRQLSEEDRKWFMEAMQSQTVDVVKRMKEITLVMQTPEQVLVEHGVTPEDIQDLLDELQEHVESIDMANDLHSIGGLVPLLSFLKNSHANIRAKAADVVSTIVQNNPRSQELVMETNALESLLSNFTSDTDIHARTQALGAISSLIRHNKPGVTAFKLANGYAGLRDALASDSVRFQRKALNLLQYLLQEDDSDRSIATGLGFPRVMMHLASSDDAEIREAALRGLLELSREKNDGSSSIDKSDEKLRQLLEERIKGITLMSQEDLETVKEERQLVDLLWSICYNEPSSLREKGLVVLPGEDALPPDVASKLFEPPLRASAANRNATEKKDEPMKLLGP , field glycan array binding signal (z-score): -0.435

Arath Fbox (Arabidopsis thaliana), NP_178341.1 (protein) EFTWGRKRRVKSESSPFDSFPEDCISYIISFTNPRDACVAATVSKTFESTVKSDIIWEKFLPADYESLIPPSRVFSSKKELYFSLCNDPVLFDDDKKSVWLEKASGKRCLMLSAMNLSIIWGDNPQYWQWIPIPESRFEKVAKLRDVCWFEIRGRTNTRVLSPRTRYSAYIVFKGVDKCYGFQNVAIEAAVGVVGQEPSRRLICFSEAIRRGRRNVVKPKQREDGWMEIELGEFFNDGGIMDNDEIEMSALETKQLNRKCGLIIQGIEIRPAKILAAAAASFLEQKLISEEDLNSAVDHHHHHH has a reported glycan array binding signal (z-score) of -0.75

Just so you know, measured glycan array binding signal (z-score) for CrataBL (Crataeva tapia), C0HJA4 (protein) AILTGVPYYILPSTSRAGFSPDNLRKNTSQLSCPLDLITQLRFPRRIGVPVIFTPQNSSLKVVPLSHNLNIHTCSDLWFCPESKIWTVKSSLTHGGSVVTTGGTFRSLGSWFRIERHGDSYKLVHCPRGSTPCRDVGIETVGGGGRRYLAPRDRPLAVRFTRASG came out at -0.386
